- assay_protocol: A CellTox Green Cytotoxicity Assay to monitor cytotoxicity in HepG2 cells - 40 hour (AID 1224879); note: nearly all actives have a fitted effect of over 40% in size; note: potency is the fitted concentration of half-maximal effect
- condition_set: CellTox Green fluorescence; series mostly up to 76.8 µM
- Description: National Center for Advancing Translational Sciences [NCATS] NIH Chemical Genomics Center [NCGC] U.S. Environmental Protection Agency [EPA] National Institutes of Environmental Health Sciences [NIEHS] National Toxicology Program [NTP] Cell-based models are critical for drug discovery. […] Viable cells produce no appreciable increases in fluorescence. Therefore, the fluorescence signal produced by the binding interaction with dead cell DNA is proportional to cytotoxicity. […]
Records with an inconclusive call do not appear. Activity calls are given as the source filed them. Calls come from the whole dose curve; as a rule, active = well fitted activation curve with a large enough effect in the repeat runs; inconclusive = weak or mixed curves; inactive = flat fitted curve, though single readings scatter.

{"molecule": "CO[Si](OC)(c1ccccc1)c1ccccc1", "Potency": "inactive"}
{"molecule": "Oc1cccc2c(O)cccc12", "Potency": "inactive"}
{"molecule": "Brc1cc(Br)cc(Br)c1", "Potency": "inactive"}
{"molecule": "N#Cc1nc(Cl)c(Cl)c(Cl)c1Cl", "Potency": "24.5 µM (active)"}
{"molecule": "Cc1cc(F)ccc1-c1cc(N2CC[C@@H](O)[C@H]2CO)ncc1N(C)C(=O)C(C)(C)c1cc(C(F)(F)F)cc(C(F)(F)F)c1", "Potency": "43 µM (active)"}
{"molecule": "O=[N+]([O-])c1ccc(O)c2ncccc12", "Potency": "4.25 µM (active)"}
{"molecule": "COc1cc(/C=C/C(=O)CC(=O)/C=C/c2ccc(O)c(OC)c2)ccc1O", "Potency": "19.6 µM (active)"}
{"molecule": "c1ccc(-c2ccc(C(c3ccccc3)n3ccnc3)cc2)cc1 (configuration not stated)", "Potency": "inactive"}
{"molecule": "NCc1cccc(C2CCN(C(=O)c3ccc(C#Cc4ccccc4F)o3)CC2)c1", "Potency": "43.6 µM (active)"}
{"molecule": "Nc1c(Br)cc([N+](=O)[O-])cc1Br", "Potency": "inactive"}
{"molecule": "CC1=C(/C=C/C(C)=C/C=C/C(C)=C\\C(=O)O)C(C)(C)CCC1", "Potency": "55.1 µM (active)"}
{"molecule": "O=C(N[C@H](CO)[C@H](O)c1ccc([N+](=O)[O-])cc1)C(Cl)Cl", "Potency": "inactive"}
{"molecule": "CCC1(C)C(=O)N(Cl)C(=O)N1Cl (configuration not stated)", "Potency": "inactive"}
{"molecule": "O=C(NCc1ncc(C(F)(F)F)cc1Cl)c1c(Cl)cccc1Cl", "Potency": "17.4 µM (active)"}
{"molecule": "COCCC(=O)OC", "Potency": "inactive"}
{"molecule": "C=Cc1ccncc1", "Potency": "inactive"}
{"molecule": "Cc1ccc(C2OC[C@@H]3OC(c4ccc(C)cc4)O[C@H]([C@H](O)CO)[C@@H]3O2)cc1 (some centres not stated)", "Potency": "inactive"}
{"molecule": "C=COCCCC", "Potency": "inactive"}
{"molecule": "CCN(CC)c1ccc(C=O)c(O)c1", "Potency": "inactive"}
{"molecule": "O=c1cc[nH]cc1", "Potency": "inactive"}
{"molecule": "CN1CC[C@H](c2c(O)cc(O)c3c(=O)cc(-c4ccccc4Cl)oc23)[C@H](O)C1", "Potency": "0.239 µM (active)"}
{"molecule": "CN1CCN(C)CC1", "Potency": "inactive"}
{"molecule": "Cc1c(Cl)c(=O)oc2cc(O)ccc12", "Potency": "inactive"}
{"molecule": "CCCCCCCCSCc1cc(C)c(O)c(CSCCCCCCCC)c1", "Potency": "inactive"}
{"molecule": "CCCCCCCCCC[N+](C)(CCCCCCCCCC)CCC[Si](OC)(OC)OC", "Potency": "19.5 µM (active)"}
{"molecule": "CC(C)C(=O)C(C)C", "Potency": "inactive"}
{"molecule": "C=CC(=O)O[C@H]1C[C@@H]2CC[C@@]1(C)C2(C)C", "Potency": "inactive"}

###

- assay_protocol: qHTS assay for small molecule agonists of the antioxidant response element (ARE) signaling pathway - cell viability counter screen (AID 743203); note: nearly all actives have a fitted effect of over 55% in size
- condition_set: ARE-bla HepG2 viability, CellTiter-Glo luminescence, 16 h; series mostly up to 73.3 µM
Records with an inconclusive call do not appear. Calls of active or inactive are those of the source. Calls come from the whole dose curve.
Labels: yes (active), no (inactive)

{"molecule": "CCCCCCCCOC(=O)c1cc(O)c(O)c(O)c1", "class_label": "yes"}
{"molecule": "CC(C)c1ccc2sc3ccccc3c(=O)c2c1", "class_label": "no"}
{"molecule": "O=C(CCN1CCC(c2ccccc2)C1)c1ccc2c(c1)OCCO2 (configuration not stated)", "class_label": "no"}
{"molecule": "Cc1cc(F)ccc1-c1cc(N2CC[C@@H](O)[C@H]2CO)ncc1N(C)C(=O)C(C)(C)c1cc(C(F)(F)F)cc(C(F)(F)F)c1", "class_label": "yes"}
{"molecule": "O=C1CCCCCCCCCCCCCC1", "class_label": "no"}
{"molecule": "Clc1nc(C(Cl)(Cl)Cl)c(Cl)c(Cl)c1Cl", "class_label": "yes"}
{"molecule": "O=C1CCC/C=C\\CCCCCCCCCC1", "class_label": "no"}

###

- experimental_system: Aromatase (Homo sapiens)
- assay_protocol: qHTS assay to identify aromatase inhibitors (AID 743083); note: nearly all actives have a fitted effect of over 55% in size
- condition_set: MCF-7 aro ERE, testosterone-driven ERE luciferase, 24 h; series mostly up to 70.3 µM
Inconclusive results are not listed. The source made the active and inactive calls. The call rests on the fitted dose curve; in most records, active means well fitted inhibition curve with a large enough effect in the repeat runs; inconclusive means weak or mixed curves; inactive means no such curve, though single readings can be large or run the other way.
Labels: active, inactive

{"entry_smiles": "Cc1cc(F)ccc1-c1cc(N2CC[C@@H](O)[C@H]2CO)ncc1N(C)C(=O)C(C)(C)c1cc(C(F)(F)F)cc(C(F)(F)F)c1", "class_label": "active"}
{"entry_smiles": "N=C(N)n1cccn1", "class_label": "inactive"}
{"entry_smiles": "O=C(O)CCCC/C=C(\\c1ccccc1)c1cccnc1", "class_label": "inactive"}
{"entry_smiles": "CON=C1C[C@]2(C[C@@H]3C[C@@H](C/C=C(\\C)C[C@@H](C)/C=C/C=C4\\CO[C@@H]5[C@H](O)C(C)=C[C@@H](C(=O)O3)[C@]45O)O2)O[C@H](/C(C)=C/C(C)C)[C@H]1C", "class_label": "inactive"}

###

- assay_protocol: qHTS assay to identify small molecule antagonists of the thyroid receptor (TR) signaling pathway (AID 743065); note: nearly all actives have a fitted effect of over 55% in size
- condition_set: GH3.TRE-Luc, T3-stimulated luciferase inhibition, 23.5 h; series mostly up to 70.3 µM
Results filed as inconclusive are left out. Activity calls are given as the source filed them. Calls follow the shape of the dose curve; as a rule, active = well fitted inhibition curve with a large enough effect in the repeat runs; inconclusive = weak or mixed curves; inactive = no such curve, though single readings can be large or run the other way.
Labels: active, inactive

{"molecule": "C=CC[N@@+]12CC[C@@]34c5ccccc5N5/C=C6/[C@H]7C[C@H]8[C@@]9(CC[N@@+]8(CC=C)C/C7=C/CO)c7ccccc7N(/C=C(/[C@@H](C[C@@H]31)/C(=C\\CO)C2)[C@H]54)[C@@H]69", "class_label": "inactive"}
{"molecule": "NCCCC[C@H](NC(=O)[C@@H]1CCCN1C(=O)[C@@H]1CSSC[C@H](N)C(=O)N[C@@H](Cc2ccc(O)cc2)C(=O)N[C@@H](Cc2ccccc2)C(=O)N[C@@H](CCC(N)=O)C(=O)N[C@@H](CC(N)=O)C(=O)N1)C(=O)NCC(N)=O", "class_label": "inactive"}
{"molecule": "N[C@@H](Cc1cnc[nH]1)C(=O)O", "class_label": "inactive"}
{"molecule": "O=C(O)COc1ccc(C(=O)c2cccs2)c(Cl)c1Cl", "class_label": "inactive"}
{"molecule": "N#Cc1nc(Cl)c(Cl)c(Cl)c1Cl", "class_label": "active"}
{"molecule": "COc1ccc2ccccc2c1", "class_label": "inactive"}
{"molecule": "NCC(O)CC(=O)O (centres undefined)", "class_label": "inactive"}
{"molecule": "c1ccc2cc3c4ccccc4c4ccccc4c3cc2c1", "class_label": "inactive"}
{"molecule": "CNCCC=C1c2ccccc2CCc2ccccc21", "class_label": "active"}

###

- assay_protocol: qHTS assay to identify small molecule antagonists of the androgen receptor (AR) signaling pathway using the MDA cell line - cell viability counter screen (AID 743041; note: nearly all actives have a fitted effect of over 45% in size)
- condition_set: MDA-kb2 viability, CellTiter-Fluor, 16 h, cells co-treated with R1881 androgen agonist; series mostly up to 70.3 µM
Results filed as inconclusive are left out. Activity calls are given as the source filed them. Calls follow the shape of the dose curve; as a rule, active = well fitted cell-killing curve with a large enough effect in the repeat runs; inconclusive = weak or mixed curves, or effect the other way; inactive = flat fitted curve, though single readings scatter.
Labels: active, inactive

{"molecule": "CCN(CC)CC#CCOC(=O)C(O)(c1ccccc1)C1CCCCC1 (centres undefined)", "class_label": "inactive"}
{"molecule": "O=C1OC(=O)c2cc(-c3ccc4c(c3)C(=O)OC4=O)ccc21", "class_label": "inactive"}
{"molecule": "CC(C)c1ccc2sc3ccccc3c(=O)c2c1", "class_label": "inactive"}
{"molecule": "COc1cc(NS(C)(=O)=O)ccc1Nc1c2ccccc2nc2ccccc12", "class_label": "inactive"}
{"molecule": "C[C@@H]1C[C@H]2[C@@H]3C[C@H](F)C4=CC(=O)C=C[C@]4(C)[C@@]3(Cl)[C@@H](O)C[C@]2(C)[C@H]1C(=O)COC(=O)C(C)(C)C", "class_label": "inactive"}
{"molecule": "O=C1CCC(c2ccccc2)(C2CCN(Cc3ccccc3)CC2)C(=O)N1 (centres undefined)", "class_label": "inactive"}
{"molecule": "CCCCCCCCCCCCCCCCCCNC(=O)OC1CCN(C(=O)OC[C@H](COC(=O)N(Cc2cccc[n+]2CC)C(=O)c2ccccc2OC)OC)CC1", "class_label": "active"}
{"molecule": "CS(=O)(=O)c1ccc([C@@H](O)[C@@H](COC(=O)CN)NC(=O)C(Cl)Cl)cc1", "class_label": "inactive"}
{"molecule": "CC(C)C[C@@H](NC(=O)[C@@H](O)[C@H](N)Cc1ccccc1)C(=O)O", "class_label": "inactive"}
